Procedure details: yeast display, Sf9 membrane polyspecificity reagent, FACS + sequencing; frameworks hold sequencing errors
Property name: polyreactivity (PSR sort gate)

[[record]]
sequence_content = "QVQLVESGGGLVQAGGSLRLSCAASGSTFVKYVMGWYRQAPGKERELVAAISWSGGSTYYADSVKGRFTISRDNAKNTVYLQMNSLKPEDTAVYYCAAVNWYDSYAKYYWGQGTQVTVSS"
property_name = "polyreactivity (PSR sort gate)"
value_reported = "high polyreactivity"

[[record]]
sequence_content = "QVQLVESGGGLVQAGGSHRLSCAASGFTFYRYAMGSYRQAPGKERELVAAITGGGSTYYADSVKGRFTISRDNAKNTVYLQMNSLKPVDTAVYYCNAYHIVIYDYWGQGTQVTVSS"
property_name = "polyreactivity (PSR sort gate)"
value_reported = "low polyreactivity"

[[record]]
sequence_content = "QVQLVESGGGVVQAGGSLRLSCAASGSTFHYYAMGWYRQAHGKERELVAAISYSSGSTYYADSVKGRVTISRDNAKNHVYLQMISLKPEDTAVYYCATESYSYYIHTTYYYWGQGTQVTLSS"
property_name = "polyreactivity (PSR sort gate)"
value_reported = "low polyreactivity"

[[record]]
sequence_content = "QVQLVESGGGLVQAGGSLRLSCAASGRTFRFYALGWYRQAPGKEREFVAAISRSVGSTYYADSVKGRFTISRDNAKHTVYLQMNSLKPEDTAVYYCAARVFRGLGEYYWGQGTQVTVSS"
property_name = "polyreactivity (PSR sort gate)"
value_reported = "high polyreactivity"

[[record]]
sequence_content = "QVQLVESGGGLVQAGGSLRLSCAASGRTFDRNAMGWYRQAPGQERELVAAITSRGGRTYYADSVKGRFTISRDNEKNTVYLQMNSLKPADTAVYYCAADLFSSRVRSNFDYWGQGTQVTVSS"
property_name = "polyreactivity (PSR sort gate)"
value_reported = "high polyreactivity"

[[record]]
sequence_content = "QVHLVESGGGLVQAGGSLRLSCAASGNIIPGNAMGWYRQAPGKERELVAAISYSGVRTHYADSVKGRFTISRDNAKNTVYLQMNSLKPEDTAVYYCAASGEQDYDYWGQGTQVTVSS"
property_name = "polyreactivity (PSR sort gate)"
value_reported = "low polyreactivity"

[[record]]
sequence_content = "QVQLVESGGGLVQAGGSLRLSCAASGSTFYFYVMGWYRQAPGKERELVAAITWSGGRTSYADSVKGRFTISRDNAKNTVYLQMNSLKPEDTAVYYCAKDLQNSSHPSRYDYWGQGTQVTVSS"
property_name = "polyreactivity (PSR sort gate)"
value_reported = "low polyreactivity"

[[record]]
sequence_content = "QVQLVESGGGLVQAGGSLRLSCAASGIIFGFYAMGWYREAPGKERELVADITNDGGNTNYADSVKGRFTISRDNAKNTVYLQMNSLKPEDTAVYYCNADRTQVRNRYTYATFDYWGQGTQVTVSS"
property_name = "polyreactivity (PSR sort gate)"
value_reported = "low polyreactivity"

[[record]]
sequence_content = "QVQLVESGGGLVQAGGSLRLSCAASGRIFPFNAMGWYRQAPGKERELVAVITWDGGSTYYADSVKGRFTISRDNAKNTVYLQMNSLKPEDTAVYYCAADIRRYYPGYEYWGQGTQVTVSS"
property_name = "polyreactivity (PSR sort gate)"
value_reported = "low polyreactivity"

[[record]]
sequence_content = "QVQLVESGGGLVQAGGSLRLSCAASGSIFVYNDKGWYRQAPGKERELVADISSGGTTDYADSVKGRFTISRDNAKNTVYLQMNSLKPEDTAVYYCAAESYIEYYLKYDYWGQGTQVTVSS"
property_name = "polyreactivity (PSR sort gate)"
value_reported = "low polyreactivity"

[[record]]
sequence_content = "QVQLVESGGGLVQAGGSHRLSCAASGFTINFYSMGWYRQAPGKERELVAAITASGGGSTYYADSVKGRFTISRDNAKNTVYLQMNSLKPEDTAVYYCNADYTGSFYTYDYWGQGTQVTVSS"
property_name = "polyreactivity (PSR sort gate)"
value_reported = "low polyreactivity"

[[record]]
sequence_content = "QVQLVESAGGLVQAGGSLRLSCAPSGRTFYGNAMGWYRQAPGTERELVAAISSRGGSTYYADSVKGRFTISRDNANNTVYLQMNSLKPEDTAVYYCNVANGLSQVYRYNYWGQGTQVTVSS"
property_name = "polyreactivity (PSR sort gate)"
value_reported = "high polyreactivity"

[[record]]
sequence_content = "QVQLVESGGGLVQAAGSLRLSSAASGSIFDANANGWYRQPPGKERELVAAITSGGSTYYADSVKGRFTISRVNAKNTVYLQMNSLKPEDTAVYYCAAQYYDYKTTYDYWGKGTQVTVSS"
property_name = "polyreactivity (PSR sort gate)"
value_reported = "high polyreactivity"

[[record]]
sequence_content = "QVQHVESGGGLVQAGGSLRLSCAASGSIYYLNAMGWYRQGPGKEWELVAAINRGGSTSYADSVKGRFTISRDNAKNTVYLQMNSLKEADTAVYYCAADHGGVQYSVRYDYWGQGTQLTVSS"
property_name = "polyreactivity (PSR sort gate)"
value_reported = "low polyreactivity"

[[record]]
sequence_content = "QVQLVESAGGLVQAGGSLSLSCAASGSTFASYAMGWYRQAPGKEREFVAAITRSGTSTYYADSVKGRFTISRDNAKNTVYLQMNSLKPEDTAVYYCNATRRTVGFGYWGQGTQVTVSS"
property_name = "polyreactivity (PSR sort gate)"
value_reported = "high polyreactivity"

[[record]]
sequence_content = "QVQLVESGGGLVQAGGSLRLSCAASGSTFFANTMGWYRQAPGKERELVAAIRDSGGSTYYADSVKGRFTISRDNSKNTVYLQMNSLKPEDTAVYYCSARYLVYGYPYRFYYWGQGTQVTVSS"
property_name = "polyreactivity (PSR sort gate)"
value_reported = "high polyreactivity"

[[record]]
sequence_content = "QVQLVESGGGLVQAGGSLRLSCAASGSTLYPYDMGWYRQAPGKERELVAAIDSGGSTNYADSVKGRFTISRDNAKNTVYLQMNSLKPEDTAVYYCATEILTAARDTVVYQFYLGYYYWGQGTQVTVSS"
property_name = "polyreactivity (PSR sort gate)"
value_reported = "low polyreactivity"

[[record]]
sequence_content = "QVQLVESGGGLVQAGGSLRLSCAASGSTFQNYAMGWYRQAPGKERELVAAINWSGGSTYYADSVKVRFTISRDNAKNTVYLQMNSLKPEDTAVYYCATDDPLAYGSFGPYQPYDYWGQGTQVTVSS"
property_name = "polyreactivity (PSR sort gate)"
value_reported = "low polyreactivity"

[[record]]
sequence_content = "QVQLVESGGGLVQAGGSLRLSCAASGFTFERYTMGWYIQAPGKERELVATISRRSGRTSYADSVKGRFTISRDNAKNTVYLQMNSLKPEDTEVYYCAVDYAYPDRYDYWGQGTQVTVSS"
property_name = "polyreactivity (PSR sort gate)"
value_reported = "high polyreactivity"

[[record]]
sequence_content = "QVQLVESGGGLVQAGGSLRLSCAASGSTFSRYTMGWYRQAPGKERELVAAISKSGGSTYYADSVKGRFTISRDNAKNTVYLQMNSLKPEDTAVYYCAALVRAGTSLDYDYWGQGTEVTVSS"
property_name = "polyreactivity (PSR sort gate)"
value_reported = "high polyreactivity"

[[record]]
sequence_content = "QVQLVESGGGLVQAGGSLRLSCAASGRIFRLYAMGWYRQAPGKEREFVATITWIGGRTYYADSVKGRFTISRDTAKNTVYLQMNSLKPEDTAVYYCAADPGYTYEYWGQGTQVTVSS"
property_name = "polyreactivity (PSR sort gate)"
value_reported = "low polyreactivity"


Cited source for all entries: the nanobody polyreactivity screen of Harvey et al. (2022)
